# protocol.details: amyloid nucleation score (Sup35N fusion, yeast selection) (log enrichment); library NNK2; higher = more nucleation; inactive = no reads after selection;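 note: zero at mode of non-aggregating sequences after 7 days selection at 30°C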
Would you please tag the item 1 when its amyloid nucleation score is -0.09 or above, and 0 when it is below?

substance	group.label
YSRVQSRPMCKLRKALHWRV	1
IYVGIHNLILMTSTLGVNKR	1
YCVRVMYNKLRLHMNIVVVC	1

Q: Confirm if amyloid nucleation score reported for the substance ELVRDGYTPFLFLILETVVM is -0.09 or above.
Result: 0

Q: Confirm if amyloid nucleation score reported for the substance LPEIHLVTLC is -0.09 or above.
Result: 0

Q: Confirm if amyloid nucleation score reported for the substance GLSNLTYDFFPEKPP is -0.09 or above.
Result: 0

Q: Confirm if amyloid nucleation score reported for the substance IIYYWAPLVITMEFQERRVR is -0.09 or above.
Result: 1

Q: Confirm if amyloid nucleation score reported for the substance RNFGAVAFWVGWHWVVFSVG is -0.09 or above.
Result: 0

Q: Confirm if amyloid nucleation score reported for the substance RSLSLLLVFLAMCAIMVPMR is -0.09 or above.
Result: 1

Q: Confirm if amyloid nucleation score reported for the substance FWGIMNSILTETLL is -0.09 or above.
Result: 0

Q: Confirm if amyloid nucleation score reported for the substance NVERSFGAVGQVRIEEYARD is -0.09 or above.
Result: 1

Q: Confirm if amyloid nucleation score reported for the substance KCSSCEF is -0.09 or above.
Result: 1

Q: Confirm if amyloid nucleation score reported for the substance PWAMDQVTLSMVLPFMWPRL is -0.09 or above.
Result: 1

Q: Confirm if amyloid nucleation score reported for the substance TSYIYLMISASPQFLS is -0.09 or above.
Result: 1

Q: Confirm if amyloid nucleation score reported for the substance RFILMNLAIVVDFVGS is -0.09 or above.
Result: 1

Q: Confirm if amyloid nucleation score reported for the substance HYRSFVDFITGWLVSFATEP is -0.09 or above.
Result: 1

Q: Confirm if amyloid nucleation score reported for the substance YFNIYAVEIVLGIRLFNNVD is -0.09 or above.
Result: 1

---

# protocol.details: amyloid nucleation score (Sup35N fusion, yeast selection) (log enrichment); library NNK3; higher = more nucleation; inactive = no reads after selection
quantity.name: amyloid nucleation score

substance	amyloid nucleation score
DDGSLDLMTKTA	inactive
KSESEGFNNSIRPWCMFCVS	inactive
YRELSTLREEMHIRY	inactive
QLMDLTGFRRSSVYVLVCDF	inactive
YYSSWLFTGMVGSYTFTALC	inactive

Batch: amyloid nucleation score for all items listed.
1. RCREFERKLALSLQSVGS
2. TYFVVDGYVGMFCLIGDISS
3. RGDMMGLSTENTLLLYDVGR
4. TDCFGLMSSALP

Result:
1: inactive; 2: 2.69; 3: inactive; 4: inactive

Batch: amyloid nucleation score for all items listed.
1. GILSISQNKISVHPLLLLRI
2. YAETPRFIRFY
3. QGSRLNGIKSPLCIGLKCSR
4. KCDEDCYAFDVYLSMGYDVS

Result:
["inactive", -0.137, "inactive", "inactive"]

---

# protocol.details: amyloid nucleation score (Sup35N fusion, yeast selection) (log enrichment); library NNK3; higher = more nucleation; inactive = no reads after selection
quantity.name: amyloid nucleation score

Please review the entries below; each comes with its answer.
substance	amyloid nucleation score
LRVQHFDTFNPANGSTPKVG	inactive
HSGETIYKVWMMGSRTEIAW	inactive
HFNCRYNAGCDGVLVFDVLL	inactive
IRHVHLSRYSTRTDGNNQLD	inactive
SKFLVNGAGLDELDVLVCLL	inactive
EPNRVLMKVQYRNSPCYTRR	inactive

Batch: amyloid nucleation score for all items listed.
1. LKYNEKDPFECH
2. FLHILGHVNLFTSLREDLSL
3. FAAAFDRGQGKS
4. SKVMVHVIWEIVILFMKSKI
5. AWVHLPGQESGYYCCFMNEM
6. NFLLDSLSSETGFRCY
7. KASHWV

Result:
1: -0.318; 2: inactive; 3: inactive; 4: inactive; 5: 1.63; 6: -0.607; 7: inactive
